Listed here are compounds together with their documented melting point.

Worked cases, melting point given:
Prompt: I'd like to know its melting point. The compound in question is O=C(NCc1ccc(F)cc1-n1cncn1)c1nc2n(c(=O)c1O)CCCOC21CCOCC1 [Example 118]
Completion: 247 °C (dec.)

Prompt: Next: Cc1ncn(-c2cc(F)ccc2CNC(=O)c2nc3n(c(=O)c2O)CCCOC32CCOCC2)n1 [Example 119]
Completion: 240 °C (dec.)

Prompt: What about CNC(=O)c1cc(F)ccc1CNC(=O)c1nc2n(c(=O)c1O)CCCOC21CCOCC1 [Example 115] ?
Completion: 211 °C (dec.)

As a next step, examine the compound that follows.
Prompt: melting point lookup needed for Cc1ncn(-c2ccccc2CNC(=O)c2nc3n(c(=O)c2O)CCCOC32CCOCC2)n1 [Example 121] , thanks.
Completion: 247 °C (dec.)

---

Molecular target: HIV-integrase (Human immunodeficiency virus type 1 group M subtype B, UniProt P04585)
Construct: Recombinant integrase (0.26 ng) was incubated with the beads
Assay: in-vitro activity against HIV-integrase (HIV Integrase Inhibition, SPA bead assay)
Type: biochemical
Settings: Table 1; recombinant integrase, activity class
METRIC: IC50

Solved cases below.
Prompt: Any idea what IC50 was measured for CN(C)S(=O)(=O)c1cc(F)ccc1CNC(=O)c1nc2n(c(=O)c1O)CCOC21CCC1 ?
Completion: 0.001 to 0.01 µM

Prompt: Cool, now Cc1ccc(CNC(=O)c2nc3n(c(=O)c2O)CCOC32CCCC2)cc1F
Completion: 0.001 to 0.01 µM

Prompt: Let us now turn to O=C(NCc1ccccc1)c1nc2n(c(=O)c1O)CCCC21CCC1
Completion: 0.001 to 0.01 µM

Prompt: And the next one, Cc1ccc(CNC(=O)c2nc3n(c(=O)c2O)CCCC32CCC2)cc1F ?
Completion: 0.001 to 0.01 µM

More entries:
Prompt: Fill blank: measured IC50 of the compound O=C(NCc1ccc(F)cc1-n1ccnc1)c1nc2n(c(=O)c1O)CCCC21CCCC1 is ____.
Completion: 0.001 to 0.01 µM

Prompt: Also CN(C)S(=O)(=O)c1cc(F)ccc1CNC(=O)c1nc2n(c(=O)c1O)CCOC21CCCC1 , if possible.
Completion: 0.001 to 0.01 µM

Prompt: Lookup O=C(NCc1ccc(F)cc1-n1cncn1)c1nc2n(c(=O)c1O)CCOC21CCC1
Completion: 0.001 to 0.01 µM

Prompt: Here is the next compound: O=C(NCc1ccccc1)c1nc2n(c(=O)c1O)CCOC21CCCC1
Completion: 0.001 to 0.01 µM

Prompt: Thanks! And Cc1cc(CNC(=O)c2nc3n(c(=O)c2O)CCCC32CCCC2)ccc1F ?
Completion: 0.001 to 0.01 µM

Prompt: Follow-up entry: O=C(NCc1ccc(F)cc1-n1cncn1)c1nc2n(c(=O)c1O)CCCC21CCCC1
Completion: 0.001 to 0.01 µM

Prompt: Param item: Cc1ncnn1-c1cc(F)ccc1CNC(=O)c1nc2n(c(=O)c1O)CCOC21CCOCC1
Completion: 0.001 to 0.01 µM

Prompt: What do you get for Cc1ccc(CNC(=O)c2nc3n(c(=O)c2O)CCOC32CCOCC2)cc1C ?
Completion: 0.001 to 0.01 µM

Prompt: Now try O=C(NCc1ccc(F)cc1)c1nc2n(c(=O)c1O)CCCOC21CCC1 .
Completion: 0.001 to 0.01 µM

Prompt: Same thing, different compound: CS(=O)(=O)c1cc(F)ccc1CNC(=O)c1nc2n(c(=O)c1O)CCCOC21CCC1
Completion: 0.01 to 0.1 µM

Prompt: Here is the next compound: COc1ccc(CNC(=O)c2nc3n(c(=O)c2O)CCOC32CCCC2)c(OC)c1
Completion: 0.01 to 0.1 µM

Prompt: Request: CNC(=O)c1cc(F)ccc1CNC(=O)c1nc2n(c(=O)c1O)CCOC21CCC1
Completion: 0.001 to 0.01 µM

Prompt: Lookup O=C(NCc1ccc(F)cc1)c1nc2n(c(=O)c1O)CCCC21CCOCC1
Completion: 0.001 to 0.01 µM

Prompt: Proceed to O=C(NCc1ccc(F)cc1-n1nccn1)c1nc2n(c(=O)c1O)CCCC21CCCC1
Completion: 0.001 to 0.01 µM

Prompt: How about CS(=O)(=O)c1cc(F)ccc1CNC(=O)c1nc2n(c(=O)c1O)CCC21CCCC1 ?
Completion: 0.001 to 0.01 µM

Prompt: Follow-up entry: O=C(NCc1ccc(F)cc1-n1cncn1)c1nc2n(c(=O)c1O)CCOC21CCOCC1
Completion: 0.001 to 0.01 µM

Prompt: Do the same for Cc1cc(CNC(=O)c2nc3n(c(=O)c2O)CCOC32CCOC2)ccc1F (centres unmarked) please
Completion: 0.001 to 0.01 µM

Prompt: // repeat for O=C(NCc1cccc(F)c1)c1nc2n(c(=O)c1O)CCCC21CCC1 and report
Completion: 0.001 to 0.01 µM

Prompt: // repeat for O=C(NCc1ccccc1N1CCCCS1(=O)=O)c1nc2n(c(=O)c1O)CCOC21CCOCC1 and report
Completion: 0.01 to 0.1 µM

Prompt: Entry O=C(NCc1ccc(F)cc1N1CCCCS1(=O)=O)c1nc2n(c(=O)c1O)CCOC21CCCC1 please
Completion: 0.001 to 0.01 µM

Prompt: Try COc1ccc(CNC(=O)c2nc3n(c(=O)c2O)CCCC32CCC2)cc1 next.
Completion: 0.01 to 0.1 µM
